The reported numbers originate from patent US5665745A.

We begin with a simple list: items and their reported pIC50.
# testedSystem: muscarinic receptors (M1 -site, pirenzepine sensitive site) (Rattus norvegicus, UniProt P08482)
# Construct: from tissue; host or cells: cerebral cortex membranes of male Wistar rats
# Sequence (P08482 1-460): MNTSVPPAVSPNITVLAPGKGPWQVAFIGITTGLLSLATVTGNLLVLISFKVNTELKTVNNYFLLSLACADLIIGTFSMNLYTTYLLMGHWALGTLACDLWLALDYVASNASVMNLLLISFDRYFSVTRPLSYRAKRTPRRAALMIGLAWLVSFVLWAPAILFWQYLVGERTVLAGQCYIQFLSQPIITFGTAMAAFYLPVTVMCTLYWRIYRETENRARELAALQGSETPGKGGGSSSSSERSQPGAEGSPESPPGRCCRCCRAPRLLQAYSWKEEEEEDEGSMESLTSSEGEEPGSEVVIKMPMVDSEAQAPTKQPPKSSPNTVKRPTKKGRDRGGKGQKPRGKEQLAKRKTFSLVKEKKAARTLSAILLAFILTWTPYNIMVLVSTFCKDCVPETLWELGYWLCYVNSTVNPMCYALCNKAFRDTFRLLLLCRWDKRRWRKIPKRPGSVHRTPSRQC
# experiment: inhibition of ^3 HPRZ (pirenzepine, [N-methyl-^3 H]) binding to rat cerebral cortex membranes
# Design: species or system rat (male Wistar
# conditionSet: ^3 HPRZ 1.0 nM, rat cortex, 60 min. at 20° C.; read-out: ^3 HPRZ IC50 (head from b208 on: Pir IC-50)
pIC50: −log10 of the molar value.
quantity: pIC50

> print(dat)
                                    molecule  quantity  comparisonsymbol  observedvalue
 1  c1ccc2c(c1)Sc1ccccc1N2CCCSc1nsnc1OC1CN2CCC1CC2 (racemic)     pIC50                 =           5.57
 2  FCCCOc1nsnc1O[C@@H]1CN2CCC[C@H]1C2 (relative stereo)     pIC50                 =           8.52
 3  Fc1ccc(OCCSc2nsnc2OC2CC3CCC2NC3)cc1 (mixture of isomers)     pIC50                 =           7.78
 4  CCC#CCCOc1nsnc1O[C@@H]1CN2CCC[C@H]1C2 (relative stereo)     pIC50                 =           8.52
 5                       CCCCOc1nsnc1OC1CNC1     pIC50                 =           6.45
 6  Fc1ccc(COc2nsnc2O[C@@H]2CN3CCC[C@H]2C3)cc1 (relative stereo)     pIC50                 =           8.40
 7  CCCCOc1nsnc1O[C@H]1CN2CCC[C@@H]1C2 (relative stereo)     pIC50                 =           8.94
 8  FC(F)(F)Oc1ccc(COc2nsnc2O[C@@H]2CN3CCC[C@H]2C3)cc1 (relative stereo)     pIC50                 =           8.06
 9  CCCCOc1nsnc1O[C@@H]1C[C@H]2CC(=O)C[C@@H]1N2C (relative stereo)     pIC50                 <           6.00
10  CCCCCCOc1nsnc1OC1CC2CCC1NC2 (mixture of isomers)     pIC50                 =           8.28
11  c1csc(COc2nsnc2O[C@@H]2CN3CCC[C@H]2C3)c1 (relative stereo)     pIC50                 =           8.85
12           CCCCOc1nsnc1O[C@@H]1CCC[C@@H]1N     pIC50                 <           6.00
13  Fc1ccc(OC(CCSc2nsnc2OC2CN3CCC2CC3)c2ccc(F)cc2)cc1 (racemic)     pIC50                 =           6.61
14  CSCCOc1nsnc1O[C@@H]1CN2CCC[C@H]1C2 (relative stereo)     pIC50                 =           8.52
15  FC(F)(F)CCCOc1nsnc1OC1CC2CCC1NC2 (mixture of isomers) [Compound 160]     pIC50                 =           8.20
16  CCCCOc1nsnc1O[C@@H]1CCC[C@H]1N(C)C (racemic)     pIC50                 =           6.32
17  CCCCSc1nsnc1O[C@H]1CN2CCC[C@@H]1C2 (relative stereo) [Compound 70]     pIC50                 =           9.19
18  CC(C)=CCCOc1nsnc1O[C@@H]1CN2CCC[C@H]1C2 (relative stereo)     pIC50                 =           7.96
19                CCCCOc1nsnc1OC[C@@H]1CCCN1     pIC50                 =           7.35
20  CCCCSc1nsnc1O[C@@H]1CCC[C@H]1N(C)C (racemic)     pIC50                 =           6.20
21        CCCCSc1nsnc1O[C@@H]1CN2CCC[C@H]1C2     pIC50                 =           8.68
22  C/C=C\COc1nsnc1O[C@@H]1CN2CCC[C@H]1C2 (relative stereo)     pIC50                 =           8.66
23  CCCS(=O)(=O)c1nsnc1OC1CN2CCC1CC2 (racemic)     pIC50                 =           6.94
24  CC(C)(C)c1ccc(COc2nsnc2O[C@@H]2CN3CCC[C@H]2C3)cc1 (relative stereo)     pIC50                 =           6.92
25  ClCCCOc1nsnc1O[C@@H]1CN2CCC[C@H]1C2 (relative stereo)     pIC50                 =           8.70
26  CCCCSc1nsnc1O[C@@H]1CNC[C@H]1O (relative stereo)     pIC50                 <           6.00
27  C/C=C/COc1nsnc1O[C@@H]1CN2CCC[C@H]1C2 (relative stereo)     pIC50                 =           8.72
28  C=CCCOc1nsnc1O[C@@H]1CN2CCC[C@H]1C2 (relative stereo)     pIC50                 =           8.66
29            c1nsnc1OC1CN2CCC1CC2 (racemic)     pIC50                 =           6.07
30  CCCCSc1nsnc1OC1CCCN2CCCC12 (mixture of isomers)     pIC50                 =           7.13
31  C1CCC(CCOc2nsnc2O[C@@H]2CN3CCC[C@H]2C3)CC1 (relative stereo)     pIC50                 =           7.92
32  C1CCC(CCCCOc2nsnc2O[C@@H]2CN3CCC[C@H]2C3)CC1 (relative stereo)     pIC50                 =           7.51
33                      CCCCOc1nsnc1OCCN(C)C     pIC50                 =           7.32
34        CCCCSc1nsnc1OC1CCCN(C)C1 (racemic)     pIC50                 =           7.70
